System: Staphylococcus aureus
experiment: Antibacterial activity against methicillin-resistant Staphylococcus aureus clinical isolate MRSA-13 measured after 16 to 18 hrs by CLSI method
Assay type: functional
setup.conditions: time 16-18 hrs

compound | sign | MIC / µg/mL
CCCCN(CCCC)CCCCCOc1ccc(C2CC(=O)c3c(OC)cc(OCCCCCN(CCCC)CCCC)c(CC=C(C)C)c3O2)cc1 (centres undefined) | = | 4
COc1cc(OCCCN2CCSCC2)c(CC=C(C)C)c2c1C(=O)CC(c1ccc(OCCCN3CCSCC3)cc1)O2 (centres undefined) | > | 128
COc1cc(OCCCCN2CCCCC2C)c(CC=C(C)C)c2c1C(=O)CC(c1ccc(OCCCCN3CCCCC3C)cc1)O2 (centres undefined) | = | 32
CCCCN(CCCC)CCCCOc1ccc(C2CC(=O)c3c(OC)cc(OCCCCN(CCCC)CCCC)c(CC=C(C)C)c3O2)cc1 (centres undefined) | = | 8

====

# Lookup of reported MIC keyed by entry
Tested on: Staphylococcus aureus
experiment: Antibacterial activity against methicillin-resistant Staphylococcus aureus clinical isolate MRSA-13 measured after 16 to 18 hrs by CLSI method
Format: functional
setup.conditions: time 16-18 hrs
outcome.measure: MIC (µg/mL)

molecule | value.units | sign | readout.number
COc1cc(OCCCCN(CC(C)C)CC(C)C)c(CC=C(C)C)c2c1C(=O)CC(c1ccc(OCCCCN(CC(C)C)CC(C)C)cc1)O2 (configuration not stated) | µg/mL | > | 128
COc1cc(OCCCN2CCN(C)CC2)c(CC=C(C)C)c2c1C(=O)CC(c1ccc(OCCCN3CCN(C)CC3)cc1)O2 (configuration not stated) | µg/mL | = | 64
CCCC[N+](C)(CCCC)CCCCCOc1ccc(C2CC(=O)c3c(OC)cc(OCCCCC[N+](C)(CCCC)CCCC)c(CC=C(C)C)c3O2)cc1.[I-].[I-] (configuration not stated) | µg/mL | = | 0.25
COc1cc(OCCCN2CCC(C)CC2)c(CC=C(C)C)c2c1C(=O)CC(c1ccc(OCCCN3CCC(C)CC3)cc1)O2 (configuration not stated) | µg/mL | = | 16
CCCCN(CCCC)CCCOc1ccc(C2CC(=O)c3c(OC)cc(OCCCN(CCCC)CCCC)c(CC=C(C)C)c3O2)cc1 (configuration not stated) | µg/mL | = | 8
COc1cc(OCCCCCN2CCC(C)CC2)c(CC=C(C)C)c2c1C(=O)CC(c1ccc(OCCCCCN3CCC(C)CC3)cc1)O2 (configuration not stated) | µg/mL | = | 8
COc1cc(OCCCCN2CCSCC2)c(CC=C(C)C)c2c1C(=O)CC(c1ccc(OCCCCN3CCSCC3)cc1)O2 (configuration not stated) | µg/mL | > | 128

====

System: Staphylococcus aureus
experiment: Antibacterial activity against methicillin-resistant Staphylococcus aureus clinical isolate MRSA-13 measured after 16 to 18 hrs by CLSI method
Type: functional
setup.conditions: time 16-18 hrs

compound | sign | MIC, µg/mL
COc1cc(OCCCN2CCCCC2C)c(CC=C(C)C)c2c1C(=O)CC(c1ccc(OCCCN3CCCCC3C)cc1)O2 (centres undefined) | = | 32
COc1cc(OCCCCCN2CCCCC2)c(CC=C(C)C)c2c1C(=O)CC(c1ccc(OCCCCCN3CCCCC3)cc1)O2 (centres undefined) | = | 8
COc1cc(O)c(CC=C(C)C)c2c1C(=O)CC(c1ccc(O)cc1)O2 (centres undefined) | > | 64
COc1cc(OCCCN2CCCCC2)c(CC=C(C)C)c2c1C(=O)CC(c1ccc(OCCCN3CCCCC3)cc1)O2 (centres undefined) | > | 128
COc1cc(OCCCCCN(CC(C)C)CC(C)C)c(CC=C(C)C)c2c1C(=O)CC(c1ccc(OCCCCCN(CC(C)C)CC(C)C)cc1)O2 (centres undefined) | > | 128
COc1cc(OCCCCCN2CCOCC2)c(CC=C(C)C)c2c1C(=O)CC(c1ccc(OCCCCCN3CCOCC3)cc1)O2 (centres undefined) | = | 16
COc1cc(OCCCN2CCCC(C)C2)c(CC=C(C)C)c2c1C(=O)CC(c1ccc(OCCCN3CCCC(C)C3)cc1)O2 (centres undefined) | = | 16
CCCC[N+](C)(CCCC)CCCCOc1ccc(C2CC(=O)c3c(OC)cc(OCCCC[N+](C)(CCCC)CCCC)c(CC=C(C)C)c3O2)cc1.[I-].[I-] (centres undefined) | = | 0.5
COc1cc(OCCCCCN2CCSCC2)c(CC=C(C)C)c2c1C(=O)CC(c1ccc(OCCCCCN3CCSCC3)cc1)O2 (centres undefined) | > | 128
CCCN(CCC)CCCOc1ccc(C2CC(=O)c3c(OC)cc(OCCCN(CCC)CCC)c(CC=C(C)C)c3O2)cc1 (centres undefined) | = | 8
COc1cc(OCCCCN2CCOCC2)c(CC=C(C)C)c2c1C(=O)CC(c1ccc(OCCCCN3CCOCC3)cc1)O2 (centres undefined) | = | 64
CCCN(CCC)CCCCOc1ccc(C2CC(=O)c3c(OC)cc(OCCCCN(CCC)CCC)c(CC=C(C)C)c3O2)cc1 (centres undefined) | = | 16
COc1cc(OCCCCCN2CCCC(C)C2)c(CC=C(C)C)c2c1C(=O)CC(c1ccc(OCCCCCN3CCCC(C)C3)cc1)O2 (centres undefined) | = | 8
COc1cc(OCCCCN2CCC(C)CC2)c(CC=C(C)C)c2c1C(=O)CC(c1ccc(OCCCCN3CCC(C)CC3)cc1)O2 (centres undefined) | = | 8

====

# Lookup of reported MIC keyed by entry
Test system: Staphylococcus aureus
experiment: Antibacterial activity against methicillin-resistant Staphylococcus aureus clinical isolate MRSA-23 measured after 16 to 18 hrs by CLSI method
Format: functional
setup.conditions: time 16-18 hrs

compound | sign | MIC, µg/mL
COc1cc(OCCCCCN2CCC(C)CC2)c(CC=C(C)C)c2c1C(=O)CC(c1ccc(OCCCCCN3CCC(C)CC3)cc1)O2 (stereo not given) | = | 8
COc1cc(OCCCN2CCC(C)CC2)c(CC=C(C)C)c2c1C(=O)CC(c1ccc(OCCCN3CCC(C)CC3)cc1)O2 (stereo not given) | = | 32
COc1cc(OCCCCN2CCCCC2C)c(CC=C(C)C)c2c1C(=O)CC(c1ccc(OCCCCN3CCCCC3C)cc1)O2 (stereo not given) | = | 32
CCCN(CCC)CCCOc1ccc(C2CC(=O)c3c(OC)cc(OCCCN(CCC)CCC)c(CC=C(C)C)c3O2)cc1 (stereo not given) | = | 16
CCCC[N+](C)(CCCC)CCCCOc1ccc(C2CC(=O)c3c(OC)cc(OCCCC[N+](C)(CCCC)CCCC)c(CC=C(C)C)c3O2)cc1.[I-].[I-] (stereo not given) | = | 0.5
COc1cc(OCCCCN2CCC(C)CC2)c(CC=C(C)C)c2c1C(=O)CC(c1ccc(OCCCCN3CCC(C)CC3)cc1)O2 (stereo not given) | = | 16
COc1cc(OCCCCN2CCSCC2)c(CC=C(C)C)c2c1C(=O)CC(c1ccc(OCCCCN3CCSCC3)cc1)O2 (stereo not given) | > | 128
COc1cc(OCCCN2CCCCC2C)c(CC=C(C)C)c2c1C(=O)CC(c1ccc(OCCCN3CCCCC3C)cc1)O2 (stereo not given) | = | 32
CCCCN(CCCC)CCCCCOc1ccc(C2CC(=O)c3c(OC)cc(OCCCCCN(CCCC)CCCC)c(CC=C(C)C)c3O2)cc1 (stereo not given) | = | 8
COc1cc(OCCCN2CCOCC2)c(CC=C(C)C)c2c1C(=O)CC(c1ccc(OCCCN3CCOCC3)cc1)O2 (stereo not given) | > | 128

====

Test system: Staphylococcus aureus
experiment: Antibacterial activity against Staphylococcus aureus ATCC 29213 measured after 16 to 18 hrs by CLSI method
Type: functional
setup.conditions: time 16-18 hrs

compound | value.units | sign | MIC
COc1cc(OCCCN2CCCC(C)C2)c(CC=C(C)C)c2c1C(=O)CC(c1ccc(OCCCN3CCCC(C)C3)cc1)O2 (configuration not stated) | µg/mL | = | 16
CCCN(CCC)CCCCCOc1ccc(C2CC(=O)c3c(OC)cc(OCCCCCN(CCC)CCC)c(CC=C(C)C)c3O2)cc1 (configuration not stated) | µg/mL | = | 8
CCCC[N+](C)(CCCC)CCCCOc1ccc(C2CC(=O)c3c(OC)cc(OCCCC[N+](C)(CCCC)CCCC)c(CC=C(C)C)c3O2)cc1.[I-].[I-] (configuration not stated) | µg/mL | = | 0.5
COc1cc(OCCCCCN2CCCCC2)c(CC=C(C)C)c2c1C(=O)CC(c1ccc(OCCCCCN3CCCCC3)cc1)O2 (configuration not stated) | µg/mL | = | 8
COc1cc(OCCCCN2CCSCC2)c(CC=C(C)C)c2c1C(=O)CC(c1ccc(OCCCCN3CCSCC3)cc1)O2 (configuration not stated) | µg/mL | = | 64
COc1cc(OCCCN2CCCCC2C)c(CC=C(C)C)c2c1C(=O)CC(c1ccc(OCCCN3CCCCC3C)cc1)O2 (configuration not stated) | µg/mL | = | 32
COc1cc(OCCCN(CC(C)C)CC(C)C)c(CC=C(C)C)c2c1C(=O)CC(c1ccc(OCCCN(CC(C)C)CC(C)C)cc1)O2 (configuration not stated) | µg/mL | > | 128
